- Test: Preliminary PK profile in dogs
- Assay type: in vivo, dog
- Test Context: dog, in vivo, po, dogs; read-out: Oral bioavailability (Oral % F)
Readout Label: bioavailability

Ask | Report bioavailability for `CC(C)(CC(=O)O)NC(=O)c1nc(C#N)c2cc(Oc3ccccc3)ccc2c1O` please.
Reply | ~25%

====

- Test: Preliminary PK profile in dogs
- Assay type: in vivo, dog
- Test Context: dog, in vivo; dogs, preliminary
- Description: The preliminary PK profile of the compound of Formula I in dogs was studied and the results are shown in FIG. 19 and summarized in the following Table.
Readout Label: Tmax (min)
The figure you give is taken to be in min; do not add the unit.

Ask | Tmax for `CC(C)(CC(=O)O)NC(=O)c1nc(C#N)c2cc(Oc3ccccc3)ccc2c1O` ?
Reply | 48

The measured values listed here are drawn from patent US20250099455A1.
